# experimental system: T1, TSHR260-alkaline phosphatase (TSHR260-AP) (human, UniProt P05187 23-511)
# T1 construct: Fusion of human TSHR amino acids 22-260 (construct codes 1-260, 1-21 being the leader) with secreted alkaline phosphatase, expressed in insect cells; In the ELISA the antibody bridges full length detergent-solubilised TSHR coated on the wells and TSHR260-AP in the liquid phase
# measurement notes: TSHR260-AP bridge ELISA, full length TSHR on wells; 250 µg/mL, diluted in assay buffer
value type: Mean absorbance at 405 nm (absorbance at 405 nm)
A number alone suffices; assume absorbance at 405 nm.

Ask | Fill blank: measured Mean absorbance at 405 nm of the binder K1-70 IgG (antibody, V domains shown, Human IgG1 lambda purified from hetero-hybridoma supernatant) VH: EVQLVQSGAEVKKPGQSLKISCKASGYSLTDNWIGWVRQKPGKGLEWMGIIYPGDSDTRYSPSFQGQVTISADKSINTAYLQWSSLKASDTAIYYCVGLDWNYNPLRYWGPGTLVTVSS VL: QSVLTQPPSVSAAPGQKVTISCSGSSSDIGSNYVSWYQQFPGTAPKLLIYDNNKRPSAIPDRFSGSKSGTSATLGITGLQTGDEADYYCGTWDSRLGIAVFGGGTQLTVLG is ____.
Reply | 1.13
